Biological target: human FolR3 (Homo sapiens, UniProt P41439)
Sequence (P41439 with tags, fused parts or gaps): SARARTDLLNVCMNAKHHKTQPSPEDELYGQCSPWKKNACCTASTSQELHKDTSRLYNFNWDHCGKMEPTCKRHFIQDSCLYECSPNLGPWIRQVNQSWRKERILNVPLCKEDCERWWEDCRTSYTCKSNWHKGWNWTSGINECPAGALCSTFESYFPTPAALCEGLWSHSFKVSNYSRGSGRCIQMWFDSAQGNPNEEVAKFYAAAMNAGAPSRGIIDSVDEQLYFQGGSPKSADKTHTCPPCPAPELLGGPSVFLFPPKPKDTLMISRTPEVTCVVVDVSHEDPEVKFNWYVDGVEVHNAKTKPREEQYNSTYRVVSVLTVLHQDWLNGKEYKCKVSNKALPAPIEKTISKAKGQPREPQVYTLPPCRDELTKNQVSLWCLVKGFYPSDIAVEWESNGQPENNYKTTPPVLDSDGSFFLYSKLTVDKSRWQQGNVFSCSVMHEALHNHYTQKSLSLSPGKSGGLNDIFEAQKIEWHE
Sequence (P01857 104-330 isoform P01857-1 Y232C/T249S/L251A/Y290V/H318R/Y319F partner): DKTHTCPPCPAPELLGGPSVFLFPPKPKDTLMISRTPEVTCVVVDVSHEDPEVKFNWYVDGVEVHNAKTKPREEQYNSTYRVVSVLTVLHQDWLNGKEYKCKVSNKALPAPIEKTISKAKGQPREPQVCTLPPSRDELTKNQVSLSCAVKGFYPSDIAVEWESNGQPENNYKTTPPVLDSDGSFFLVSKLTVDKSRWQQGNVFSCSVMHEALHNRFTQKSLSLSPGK
Assay: SPR affinity of selected Fab clones (ProteOn XPR36)
Assay type: binding
Design: the extracellular domain of the antigen linked to the hinge region of Fc-knob; made in house; host or cells: HEK293 EBNA
Conditions: Fab-format, generic multi-framework sub-libraries, 25° C.

{"columns": ["molecule", "KD huFolR3"],
 "data": [
  ["11F8: anti-FolR1 clone, generic multi-framework library (Vk_1_5/VH_1_69); Fab and IgG (antibody, V domains shown) VH: QVQLVQSGAEVKKPGSSVKVSCKASGGTFSSYAISWVRQAPGQGLEWMGGIIPIFGTANYAQKFQGRVTITADKSTSTAYMELSSLRSEDTAVYYCARAVFYRAWYSFDYWGQGTTVTVSS VL: DIQMTQSPSTLSASVGDRVTITCRASQSISSWLAWYQQKPGKAPKLLIYDASSLESGVPSRFSGSGSGTEFTLTISSLQPDDFATYYCQQYTSPPPTFGQGTKVEIK", "no binding"],
  ["36F2: anti-FolR1 clone, generic multi-framework library (Vk_3_20/VH_1_46); Fab and IgG (antibody, V domains shown) VH: QVQLVQSGAEVKKPGASVKVSCKASGYTFTSYYMHWVRQAPGQGLEWMGIINPSGGSTSYAQKFQGRVTMTHDTSTSTVYMELSSLRSEDTAVYYCARSFFTGFHLDYWGQGTLVTVSS VL: EIVLTQSPGTLSLSPGERATLSCRASQSVSSSYLAWYQQKPGQAPRLLIYGASSRATGIPDRFSGSGSGTDFTLTISRLEPEDFAVYYCQQYTNEHYYTFGQGTKVEIK", "no binding"],
  ["6B6: anti-FolR1 clone, generic multi-framework library (Vk3_20/VH1_46); Fab and IgG (antibody, V domains shown) VH: QVQLVQSGAEVKKPGASVKVSCKASGYTFTSYYMHWVRQAPGQGLEWMGIINPSGGSTSYAQKFQGRVTMTRDTSTSTVYMELSSLRSEDTAVYYCARSYVDMDYWGQGTLVTVSS VL: EIVLTQSPGTLSLSPGERATLSCRASQSVSSSYLAWYQQKPGQAPRLLIYGASSRATGIPDRFSGSGSGTDFTLTISRLEPEDFAVYYCQQDIWSPTFGQGTKVEIK", "no binding"]
]}

Where do these numbers come from? They come from patent US10781262B2.
